experiment_description: Binding affinity to recombinant Trypanosoma cruzi His/haemaglutinin-tagged BDF3 expressed in Escherichia coli BL21 by fluorescence spectra analysis
measurement_label: Kd (nM)
A number alone suffices; assume nM.

Which Kd is listed for `COc1cc(/C=N/NC(=O)c2cccs2)ccc1O` ?
1700

###

experiment_description: Selectivity index, ratio of IC50 for African green monkey Vero cells to IC50 for Trypanosoma cruzi Dm28c trypomastigotes infected in African green monkey Vero cells
Assay type: toxicity
protocol_conditions: read-out: Ratio IC50
measurement_label: selectivity ratio
Answer field: number only, no words.

Which selectivity ratio is listed for CC1CS(=O)(=O)CCN1/N=C/c1ccc([N+](=O)[O-])o1 (configuration not stated) [NIFURTIMOX] ?
16

###

Reported values of IC50 for individual entries
Test system: Vero
experiment_description: Cytotoxicity against African green monkey Vero cells after 72 hrs by MTT assay
Assay type: cell-based
protocol_conditions: Chlorocebus sabaeus
A number alone suffices; assume µM.

| compound | reported_result |
| --- | --- |
| O=C(Cn1ccnc1[N+](=O)[O-])NCc1ccccc1 | 30.2 |

Could you now consider this next compound?
IC50 of CC1CS(=O)(=O)CCN1/N=C/c1ccc([N+](=O)[O-])o1 (stereo not drawn) on Vero?
115

###

Reported values of fold change (FC) for individual entries
System: Trypanosoma cruzi
experiment_description: Binding affinity to recombinant Trypanosoma cruzi His/haemaglutinin-tagged BDF3 expressed in Escherichia coli BL21 assessed as compound amplification factor at 75 uM by LC-MS based dynamic combinatorial chemistry analysis

Below: 5 compounds and their reported fold change (FC).
| test_smiles | measured_on | reported_result |
| --- | --- | --- |
| O=C(N/N=C/CCC/C=N/NC(=O)c1cccs1)c1cccs1 | Trypanosoma cruzi | 1.5 to 2 |
| O=C(N/N=C/CCC/C=N/NC(=O)c1ccncc1)c1ccncc1 | Trypanosoma cruzi | < 1 |
| COc1cc(/C=N/NC(=O)c2ccncc2)cc(OC)c1OC | Trypanosoma cruzi | < 1 |
| COc1cc(/C=N/NC(=O)c2ccncc2)ccc1O | Trypanosoma cruzi | < 1 |
| O=C(O)c1ccc(/C=N/NC(=O)c2ccncc2)cc1 | Trypanosoma cruzi | < 1 |

Could you now consider this next compound?
Which fold change (FC) is listed for `O=C(N/N=C/c1ccc(CO)o1)c1ccncc1` ?
< 1

###

experiment_description: Selectivity index, ratio of IC50 for African green monkey Vero cells to IC50 for Trypanosoma cruzi Dm28c amastigotes infected in African green monkey Vero cells
Type: toxicity
protocol_conditions: read-out: Ratio IC50
measurement_label: selectivity ratio
Answer field: number only, no words.

Which selectivity ratio is listed for CC1CS(=O)(=O)CCN1/N=C/c1ccc([N+](=O)[O-])o1 (configuration not stated) ?
38

###

Reported values of fold change (FC) for individual entries
Test system: Trypanosoma cruzi
experiment_description: Binding affinity to recombinant Trypanosoma cruzi His/haemaglutinin-tagged BDF3 expressed in Escherichia coli BL21 assessed as compound amplification factor at 75 uM by LC-MS based dynamic combinatorial chemistry analysis

Below: 5 compounds and their reported fold change (FC).
| test_smiles | fold change (FC) |
| --- | --- |
| O=C(N/N=C/[C@H](O)[C@H](O)[C@H](O)[C@@H](O)CO)c1ccncc1 | 1.5 to 2 |
| COc1cc(/C=N/NC(=O)c2ccccc2)cc(OC)c1OC | < 1 |
| O=C(N/N=C/[C@H](O)[C@H](O)[C@H](O)[C@@H](O)CO)c1ccco1 | < 1 |
| COc1cc(/C=N/NC(=O)c2ccco2)cc(OC)c1OC | < 1 |
| O=C(N/N=C/CCC/C=N/NC(=O)c1ccncc1)c1ccccc1 | < 1 |

Could you now consider this next compound?
fold change (FC) of `O=C(N/N=C/CCC/C=N/NC(=O)c1ccccc1)c1ccccc1` on Trypanosoma cruzi?
< 1

###

System: Trypanosoma cruzi
experiment_description: Binding affinity to recombinant Trypanosoma cruzi His/haemaglutinin-tagged BDF3 expressed in Escherichia coli BL21 assessed as compound amplification factor at 75 uM by LC-MS based dynamic combinatorial chemistry analysis
measurement_label: fold change (FC)

| test_smiles | reported_result |
| --- | --- |
| O=C(N/N=C/c1ccc(CO)o1)c1ccco1 | < 1 |
| O=C(N/N=C/[C@H](O)[C@H](O)[C@H](O)[C@@H](O)CO)c1ccccc1 | 1.5 to 2 |
| O=C(O)c1ccc(/C=N/NC(=O)c2cccs2)cc1 | < 1 |
| O=C(N/N=C/CCC/C=N/NC(=O)c1ccco1)c1ccco1 | < 1 |
| O=C(N/N=C/CCC/C=N/NC(=O)c1cccs1)c1ccco1 | < 1 |
| COc1cc(/C=N/NC(=O)c2ccco2)ccc1O | 1.5 to 2 |
| O=C(O)c1ccc(/C=N/NC(=O)c2ccco2)cc1 | < 1 |
| O=C(N/N=C/CCC/C=N/NC(=O)c1ccco1)c1ccncc1 | < 1 |

Could you now consider this next compound?
Which fold change (FC) is listed for `O=C(N/N=C/CCC/C=N/NC(=O)c1ccco1)c1ccccc1` ?
< 1

###

Test system: Trypanosoma cruzi
experiment_description: Binding affinity to recombinant Trypanosoma cruzi His/haemaglutinin-tagged BDF3 expressed in Escherichia coli BL21 assessed as compound amplification factor at 75 uM by LC-MS based dynamic combinatorial chemistry analysis
measurement_label: fold change (FC)

Below: 3 molecules and their reported fold change (FC).
| test_smiles | measurement_label | reported_result |
| --- | --- | --- |
| O=C(N/N=C/c1ccc(CO)o1)c1cccs1 | fold change (FC) | < 1 |
| COc1cc(/C=N/NC(=O)c2cccs2)ccc1O | fold change (FC) | 2.4 |
| O=C(N/N=C/CCC/C=N/NC(=O)c1cccs1)c1ccccc1 | fold change (FC) | < 1 |

Which fold change (FC) is listed for `O=C(N/N=C/c1ccc(CO)o1)c1ccccc1` ?
< 1

Repeat with `O=C(O)c1ccc(/C=N/NC(=O)c2ccccc2)cc1`
< 1

Repeat with `O=C(N/N=C/CCC/C=N/NC(=O)c1cccs1)c1ccncc1`
< 1

Repeat with `COc1cc(/C=N/NC(=O)c2cccs2)cc(OC)c1OC`
1.2

Repeat with `O=C(N/N=C/[C@H](O)[C@H](O)[C@H](O)[C@@H](O)CO)c1cccs1`
< 1

Repeat with `COc1cc(/C=N/NC(=O)c2ccccc2)ccc1O`
1.5 to 2
